system: Bacillus subtilis; test: cleaved RNA product abundance (RNA/gDNA barcode ratio) relative to median wild-type variant (ratio to wild type); higher = more accumulation of the downstream cleavage product; settings: experiment (reporter, strain, medium): exp 4a: truncated aprE reporter, strain BJT201 with 2% xylose (RNase J1 expressed); cleavage site: cggR-gapA (positions -7 to +36 mutated)
recorded-endpoint: cleaved RNA product abundance
// no unit string in output, number only

Below, each entry is followed by its recorded cleaved RNA product abundance result.
ACAGACGAAGGAGCCGCAAAGAAGTTATTAAAGGATGGATAATCCCTCAATATAAATATCTCTCACTTATTTAAA 0.141
ACAGACGAAGGAGCCGCAAAGAAGTTAATAAGGGATGAATAATCCATCAATATAAATATCTCTCACTTATTTAAA 0.224
ACAGACGAAGGAGCCGCAAAGAAATTATTAAGCGATGAATAATCACTCAATATAAATATCTCTCACTTATTTAAA 0.184
ACAGACGAAGGAGCCGCAAAGAAGTTATTCAGGGATGAATAATCCCTCAATATAAAAATCTCTCACTTATTTAAA 0.461

Which cleaved RNA product abundance value is on record for `ACAGACGAAGGAGCCGCAAAGAATTTATTAAGGGAAGAATAATCCCTCAATATAAATATCTCTCACTTATTTAAA` ?
0.518

I would be grateful if you could share the reported cleaved RNA product abundance for `ACAGACGAAGGAGCCGCAACGAAGTTATTAAGGGATGAATTATCCCTCAATATAAATATCTCTCACTTATTTAAA` .
0.91
